Source of measurements: paper PMC5601360

Measured Emax, listed per entry for reference.
system.tested: human KOP receptor (Homo sapiens, UniProt P41145)
Construct: expressed in transfected cells; host or cells: CHO-hKOP cells (gift of Dr. Lawrence Toll, SRI International)
assay.info: [35S]GTPγS binding assay using CHO-hKOP cell membranes
Type: biochemical
run.parameters: percentage stimulation relative to the KOP full agonist U69,593; read-out: [35S]GTPγS KOP % stim
Return type: number; implicit unit %.

The cases that follow already have their Emax on record.
# molecule.smiles, property.name, experimental.value
records = [
    ("Cl.Oc1cccc(CCN(CCc2ccccc2)CC2CCCCC2)c1", "Emax", 61.9),
    ("Cl.Oc1cccc(CCN(CCc2cccc(O)c2)CC2CC2)c1", "Emax", 51.3),
    ("Cl.Oc1cccc(CCN(CCc2ccccc2)CC2CCC2)c1F", "Emax", 71.4),
    ("CC(C)CCN(CCc1cccc(O)c1)CCc1cccc(O)c1.Cl", "Emax", 65.6),
    ("C=CCN(CCc1ccc(O)cc1)CCc1cccc(O)c1", "Emax", 28.5),
    ("Cl.Oc1ccc(CCN(CCc2cccc(O)c2F)CC2CCC2)cc1", "Emax", 69.1),
    ("Cl.Oc1cccc(CCN(CCc2cccc(O)c2)CC2CCC2)c1", "Emax", 71.1),
]

Here is another molecule to look at.
API: value(readout=Emax, system=human KOP receptor (Homo sapiens, UniProt P41145)) for record `Cl.Oc1cccc(CCN(CCc2cccc(O)c2F)CC2CCC2)c1`
57.5

* * *

Below is a list of entries, each paired with its recorded Ki value.
system.tested: human MOP receptor (Homo sapiens)
Express your answer in nM, writing the number without its unit.

# molecule.smiles, system.tested, property.name, unit.info, experimental.value
rows = [
    ("Cl.Oc1cccc(CCN(CCc2cccc(O)c2)CC2CCC2)c1", "human MOP receptor (Homo sapiens)", "Ki", "nM", 230),
]

I would be grateful if you could share the reported Ki for `CC(C)CCN(CCc1ccccc1)CCc1cccc(O)c1.Cl` .
259

Consider the compound shown here: `C=CCN(CCc1ccc(O)cc1)CCc1cccc(O)c1` What is its recorded Ki?
192

Please look up its Ki: `Cl.Oc1ccc(CCN(CCc2cccc(O)c2)CC2CCCCC2)cc1`
234

Look up Ki for this compound: `Cl.Oc1cccc(CCN(CCc2ccccc2)C2CCC2)c1`
670

Could you share which Ki value was measured for `Cl.Oc1cccc(CCN(CCc2ccccc2)CC2CCCC2)c1` ?
274

I'd like to know its Ki. The compound in question is `c1ccc(CCN(CCc2ccccc2)CC2CCC2)cc1`
1060

* * *

system.tested: human KOP receptor (Homo sapiens)
Categories are defined by ranges of Ki, namely bucket 1 = under 2 nM, bucket 2 = from 2 nM up to 5 nM, bucket 3 = 5 nM and over

# molecule.smiles, system.tested, assigned.category
data = [
    ("C=CCN(CCc1cccc(O)c1)CCc1cccc(O)c1.Cl", "human KOP receptor (Homo sapiens)", "bucket 3"),
    ("Cl.Oc1cccc(CCN(CCc2ccccc2)CC2CCCC2)c1", "human KOP receptor (Homo sapiens)", "bucket 1"),
    ("CC(C)CCN(CCc1ccccc1)CCc1cccc(O)c1.Cl", "human KOP receptor (Homo sapiens)", "bucket 2"),
    ("Cl.Oc1cccc(CCN(CCc2ccccc2)Cc2ccccc2)c1", "human KOP receptor (Homo sapiens)", "bucket 1"),
    ("Cl.Oc1ccc(CCN(CCc2cccc(O)c2)CC2CCC2)cc1", "human KOP receptor (Homo sapiens)", "bucket 2"),
    ("Cl.Oc1cccc(CCN(CCc2cccc(O)c2)CC2CCCCC2)c1", "human KOP receptor (Homo sapiens)", "bucket 1"),
    ("Cl.Oc1cccc(CCN(CCc2ccccc2)C2CCC2)c1", "human KOP receptor (Homo sapiens)", "bucket 3"),
    ("Cl.Oc1ccc(CCN(CCc2cccc(O)c2)CC2CCCCC2)cc1", "human KOP receptor (Homo sapiens)", "bucket 1"),
    ("Cl.Oc1cccc(CCN(CCc2cccc(O)c2)CC2CC2)c1", "human KOP receptor (Homo sapiens)", "bucket 2"),
]

Note: attention shifts to another entry.
// return the class label for `C=CCN(CCc1ccc(O)cc1)CCc1cccc(O)c1`
bucket 3
